# Study Target: CD73 on U138 neuroglioma cells (Homo sapiens)
# Construct: U138 neuroglioma cells, which express CD73 on their surface; endogenous in cells; host or cells: U138 neuroglioma cells (ATCC)
# Protocol Description: Inhibition of Ecto-5′-Nucleotidase Activity in U138 Neuroglioma Cells (Assay 2)
# Assay type: cell-based
# Settings: 50 μM CMP, 2 hr at 37° C., malachite green readout, read-out: Assay 2: IC50, inhibition of ecto-5′-nucleotidase activity in U138 neuroglioma cells
pIC50: −log10 of the molar value.
Measurement Label: pIC50

Worked cases, pIC50 given:
CC(=O)NNC(=O)C(OC[C@H]1O[C@@H](n2cnc3c(N)nc(Cl)nc32)[C@H](O)[C@@H]1O)P(=O)(O)O (stereo partly drawn) | 6.00 to 7.00
CCOC(=O)C(OC[C@H]1C[C@@H](n2nnc3c(NC4CCCC4)nc(Cl)nc32)[C@H](O)[C@@H]1O)P(=O)(O)O (stereo partly drawn) | > 7.00
CCOC(=O)C(OC[C@H]1C[C@@H](n2cnc3c(N)nc(Cl)nc32)[C@H](O)[C@@H]1O)P(=O)(O)O (single isomer, unassigned) [Example 76] | > 7.00
O=C(O)C(OC[C@H]1O[C@@H](n2cnc3c(N4CCC(O)CC4)ncnc32)[C@H](O)[C@@H]1O)P(=O)(O)O (stereo partly drawn) | < 6.00
CCOC(=O)[C@@H](OC[C@H]1O[C@@H](n2cnc3c(N)nc(Cc4ccccc4)nc32)[C@H](O)[C@@H]1O)P(=O)(O)O (single isomer, unassigned) [Example 39a] | < 6.00

INPUT: What does the record list as pIC50 for CCOC(=O)[C@H](OC[C@H]1O[C@@H](n2cnc3c(N)nc(C#N)nc32)[C@H](O)[C@@H]1O)P(=O)(O)O (single isomer, unassigned) ?
OUTPUT: > 7.00

----------
# Study Target: CD73 on U138 neuroglioma cells (Homo sapiens, UniProt P21589)
# Construct: U138 neuroglioma cells, which express CD73 on their surface; endogenous in cells; host or cells: U138 neuroglioma cells (ATCC)
# Sequence (P21589 27-549): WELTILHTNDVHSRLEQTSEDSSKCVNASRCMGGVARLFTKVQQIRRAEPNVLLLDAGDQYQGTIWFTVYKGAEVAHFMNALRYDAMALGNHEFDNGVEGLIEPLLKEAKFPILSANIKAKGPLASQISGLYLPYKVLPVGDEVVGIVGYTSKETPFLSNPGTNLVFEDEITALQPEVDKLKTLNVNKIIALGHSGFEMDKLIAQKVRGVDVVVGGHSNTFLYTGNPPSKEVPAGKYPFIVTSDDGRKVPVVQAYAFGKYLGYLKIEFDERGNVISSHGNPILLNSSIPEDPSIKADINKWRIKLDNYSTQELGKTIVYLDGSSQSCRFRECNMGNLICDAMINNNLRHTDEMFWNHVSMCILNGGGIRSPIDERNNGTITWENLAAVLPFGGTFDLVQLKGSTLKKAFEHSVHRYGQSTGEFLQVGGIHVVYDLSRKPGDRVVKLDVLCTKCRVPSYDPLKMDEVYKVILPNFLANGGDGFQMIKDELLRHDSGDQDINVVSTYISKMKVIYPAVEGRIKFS
# Protocol Description: Inhibition of Ecto-5′-Nucleotidase Activity in U138 Neuroglioma Cells (Assay 2)
# Format: cell-based
# Settings: 50 μM CMP, 2 hr at 37° C., malachite green readout, read-out: Assay 2: IC50, inhibition of ecto-5′-nucleotidase activity in U138 neuroglioma cells
pIC50: −log10 of the molar value.
Measurement Label: pIC50

Worked cases, pIC50 given:
CC(C)(C)OC(=O)[C@H](OC[C@H]1O[C@@H](n2cnc3c(N)nc(Cl)nc32)[C@H](O)[C@@H]1O)P(=O)(O)O (single isomer, unassigned) | > 7.00
CC(C)(C)OC(=O)[C@H](OC[C@H]1O[C@@H](n2cnc3c(N)nc(C#N)nc32)[C@H](O)[C@@H]1O)P(=O)(O)O (single isomer, unassigned) [Example 54] | > 7.00
Nc1nc(Cl)nc2c1ncn2[C@@H]1O[C@H](COC(Cc2c(F)cccc2F)(C(=O)O)C(=O)O)[C@@H](O)[C@H]1O | > 7.00
CCNC(=O)[C@H](OC[C@H]1O[C@@H](n2cnc3c(NCC)nc(Cl)nc32)[C@H](O)[C@@H]1O)P(=O)(O)O (single isomer, unassigned) | 6.00 to 7.00
CCOC(=O)[C@H](OC[C@H]1O[C@@H](n2cnc3c(N)nc(C(F)(F)F)nc32)[C@H](O)[C@@H]1O)P(=O)(O)O (single isomer, unassigned) | 6.00 to 7.00

INPUT: What does the record list as pIC50 for `Nc1nc(Cl)nc2c1ncn2[C@@H]1O[C@H](COC(Cc2ccccn2)(C(=O)O)C(=O)O)[C@@H](O)[C@H]1O` ?
OUTPUT: > 7.00

INPUT: What does the record list as pIC50 for CCOC(=O)C(OC[C@H]1C[C@@H](n2nnc3c(NC[C@@H]4CCOC4)nc(Cl)nc32)[C@H](O)[C@@H]1O)P(=O)(O)O (stereo partly shown) ?
OUTPUT: > 7.00

INPUT: What does the record list as pIC50 for CCOC(=O)[C@H](OC[C@H]1O[C@@H](n2cnc3c(N)nc([C@@H]4NCCO4)nc32)[C@H](O)[C@@H]1O)P(=O)(O)O (single isomer, unassigned) ?
OUTPUT: < 6.00

INPUT: What does the record list as pIC50 for CCOC(=O)[C@H](OC[C@H]1O[C@@H](n2cnc3c(N)nc(-c4ccccc4)nc32)[C@H](O)[C@@H]1O)P(=O)(O)O (single isomer, unassigned) ?
OUTPUT: 6.00 to 7.00

INPUT: What does the record list as pIC50 for `Nc1nc(Cl)nc2c1ncn2[C@@H]1O[C@H](COC(CC2CC2)(C(=O)O)C(=O)O)[C@@H](O)[C@H]1O` ?
OUTPUT: > 7.00

INPUT: What does the record list as pIC50 for CNc1nc(Cl)nc2c1ncn2[C@@H]1O[C@H](COC(C(F)(F)F)P(=O)(O)O)[C@@H](O)[C@H]1O (single isomer, unassigned) [Example 100a] ?
OUTPUT: > 7.00

INPUT: What does the record list as pIC50 for CCOC(=O)[C@H](OC[C@H]1C[C@@H](n2cnc3cccc(Br)c3c2=O)[C@H](O)[C@@H]1O)P(=O)(O)O (single isomer, unassigned) ?
OUTPUT: < 6.00

INPUT: What does the record list as pIC50 for CCOC(=O)[C@H](OC[C@H]1O[C@@H](n2cnc3c(-n4ccnc4)nc(Cl)nc32)[C@H](O)[C@@H]1O)P(=O)(O)O (single isomer, unassigned) ?
OUTPUT: > 7.00

----------
# Study Target: CD73 on U138 neuroglioma cells (Homo sapiens, UniProt P21589)
# Construct: U138 neuroglioma cells, which express CD73 on their surface; endogenous in cells; host or cells: U138 neuroglioma cells (ATCC)
# Protocol Description: Inhibition of Ecto-5′-Nucleotidase Activity in U138 Neuroglioma Cells (Assay 2)
# Assay type: cell-based
# Settings: 50 μM CMP, 2 hr at 37° C., malachite green readout, read-out: Assay 2: IC50, inhibition of ecto-5′-nucleotidase activity in U138 neuroglioma cells
pIC50: −log10 of the molar value.
Measurement Label: pIC50

Worked cases, pIC50 given:
CCOC(=O)[C@H](OC[C@H]1O[C@@H](n2cnc3c(OCC)nc(Cl)nc32)[C@H](O)[C@@H]1O)P(=O)(O)O (single isomer, unassigned) [Example 27] | 6.00 to 7.00
CS(=O)(=O)C(OC[C@H]1O[C@@H](n2cnc3c(N)nc(Cl)nc32)[C@H](O)[C@@H]1O)P(=O)(O)O (single isomer, unassigned) [Example 10] | 6.00 to 7.00

INPUT: What does the record list as pIC50 for CCOC(=O)[C@@H](OC[C@H]1O[C@@H](n2cnc3c(-n4ccnc4)nc(Cl)nc32)[C@H](O)[C@@H]1O)P(=O)(O)O (single isomer, unassigned) [Example 26a] ?
OUTPUT: 6.00 to 7.00

INPUT: What does the record list as pIC50 for CCOC(=O)[C@@H](OC[C@H]1O[C@@H](n2cnc3c(NC(=O)c4ccccc4)nc(Cl)nc32)[C@H](O)[C@@H]1O)P(=O)(O)O (single isomer, unassigned) [Example 36a] ?
OUTPUT: < 6.00

INPUT: What does the record list as pIC50 for CCOC(=O)[C@@H](OC[C@H]1O[C@@H](n2cnc3c(NCc4ccccc4)nc(Cl)nc32)[C@H](O)[C@@H]1O)P(=O)(O)O (single isomer, unassigned) [Example 24a] ?
OUTPUT: 6.00 to 7.00

----------
# IC50 per record follows
# Study Target: CD73 on U138 neuroglioma cells (Homo sapiens, UniProt P21589)
# Construct: U138 neuroglioma cells, which express CD73 on their surface; endogenous in cells; host or cells: U138 neuroglioma cells (ATCC)
# Sequence (P21589 27-549): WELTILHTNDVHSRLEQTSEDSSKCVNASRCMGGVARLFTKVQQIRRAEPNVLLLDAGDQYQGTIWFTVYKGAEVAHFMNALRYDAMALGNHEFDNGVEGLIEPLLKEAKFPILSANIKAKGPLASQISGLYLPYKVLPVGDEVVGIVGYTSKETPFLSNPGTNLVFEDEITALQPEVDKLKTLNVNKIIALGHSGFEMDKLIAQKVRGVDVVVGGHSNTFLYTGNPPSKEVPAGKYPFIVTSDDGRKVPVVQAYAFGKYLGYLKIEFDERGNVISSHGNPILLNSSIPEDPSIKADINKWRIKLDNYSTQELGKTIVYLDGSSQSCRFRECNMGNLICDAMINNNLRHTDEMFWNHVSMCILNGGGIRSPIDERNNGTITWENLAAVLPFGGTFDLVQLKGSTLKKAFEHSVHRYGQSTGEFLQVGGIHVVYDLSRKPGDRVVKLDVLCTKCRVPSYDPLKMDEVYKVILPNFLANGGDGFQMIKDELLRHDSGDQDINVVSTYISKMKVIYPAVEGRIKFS
# Protocol Description: Inhibition of Ecto-5′-Nucleotidase Activity in U138 Neuroglioma Cells (Assay 2)
# Type: cell-based
# Settings: 50 μM CMP, 2 hr at 37° C., malachite green readout, read-out: Assay 2: IC50, inhibition of ecto-5′-nucleotidase activity in U138 neuroglioma cells

CCOC(=O)[C@H](OC[C@H]1O[C@@H](n2cnc3c(N)nc(SCC)nc32)[C@H](O)[C@@H]1O)P(=O)(O)O (single isomer, unassigned) [Example 44] | > 1000 nM
CCOC(=O)[C@@H](OC[C@H]1O[C@@H](n2cnc3c(OCC)nc(Cl)nc32)[C@H](O)[C@@H]1O)P(=O)(O)O (single isomer, unassigned) [Example 27a] | 100 to 1000 nM
O=C(O)C(OC[C@H]1O[C@@H](n2cnc3c(N[C@H]4CCOC4)nc(Cl)nc32)[C@H](O)[C@@H]1O)C(=O)O [Example 83] | > 1000 nM

// moving on: another record for IC50
INPUT: What does the record list as IC50 for CCOC(=O)[C@H](OC[C@H]1O[C@@H](n2cnc3c(N)nc(C4CC4)nc32)[C@H](O)[C@@H]1O)P(=O)(O)O (single isomer, unassigned) [Example 50] ?
OUTPUT: > 1000 nM
